Target: RAD51 (Homo sapiens, UniProt Q06609)
Construct: His; made in house; host or cells: Escherichia coli BL21-DE3
Sequence (Q06609 1-339): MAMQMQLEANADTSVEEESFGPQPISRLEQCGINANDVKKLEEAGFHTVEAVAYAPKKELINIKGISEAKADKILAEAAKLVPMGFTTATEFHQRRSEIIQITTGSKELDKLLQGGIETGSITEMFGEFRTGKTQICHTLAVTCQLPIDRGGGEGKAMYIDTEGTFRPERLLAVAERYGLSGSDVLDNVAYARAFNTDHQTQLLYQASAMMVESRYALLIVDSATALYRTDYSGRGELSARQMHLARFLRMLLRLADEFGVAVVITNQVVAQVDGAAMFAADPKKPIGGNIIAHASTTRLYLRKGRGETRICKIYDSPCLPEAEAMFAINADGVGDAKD
Test: RAD51 self-association by BS3 chemical cross-linking
Format: biochemical
Settings: 50 µM of drug, three independent experiments
Experimental: The mechanism of action of these DIDS analogs molecules remains unclear, but they probably act on the protein–protein interaction site of RAD51. […] RAD51 at 8.5 µM was incubated with the indicated concentrations of chemical compounds for 5 min at room temperature in a buffer containing 20 mM sodium phosphate, 50 mM azidol, 1 mM MgCl2, and 1 mM ATP. […] The sample was separated by SDS-PAGE at 10% and analyzed by Western blotting. […]
Measurement label: Decrease of polymerization rate (oligomer/monomer form intensity ratio)

Smiles text	Measurement
CC(=O)Nc1ccc(C=Cc2ccc(N=C=S)cc2S(=O)(=O)O)c(S(=O)(=O)O)c1	about 40%
O=S(=O)(O)c1cc(N=C=S)ccc1C=Cc1ccc(N=C=S)cc1S(=O)(=O)O	about 40%
[N-]=[N+]=Nc1ccc(C=Cc2ccc(N=[N+]=[N-])cc2S(=O)(=O)O)c(S(=O)(=O)O)c1	about 40%
O=[N+]([O-])c1ccc(C=Cc2ccc([N+](=O)[O-])cc2S(=O)(=O)O)c(S(=O)(=O)O)c1	no effect
Nc1ccc(C=Cc2ccc(N)cc2S(=O)(=O)O)c(S(=O)(=O)O)c1	no effect
